The origin of these recorded values is ChEMBL document CHEMBL1130259.

- ASSAY METHOD TEXT: Maximum concentration (5 mg/kg, intravenously) in plasma of dogs
- Assay type: ADME, organism-based, Canis lupus familiaris
- Design: dose 5 mg/kg, route intravenous
- CONDITION DETAILS: dog, iv
MEASURED METRIC: Cmax

Problem: Can you share its Cmax? I mean this compound: `Nc1cccc(CN2C(=O)N(Cc3cccc(C(=O)Nc4nc5ccccc5[nH]4)c3)[C@H](Cc3ccccc3)[C@H](O)[C@@H](O)[C@H]2Cc2ccccc2)c1`
Result: 5500 ng/mL

###

- TARGET ENTITY: Human immunodeficiency virus type 1 protease (Human immunodeficiency virus 1, UniProt Q72874)
- ASSAY METHOD TEXT: Affinity against HIV protease
So I've got a bunch of compounds here, and I need their pKi values.
Give bare numbers, as −log10 of the molar value.

[[record]]
mol = "O=C(Nc1ccccn1)c1cccc(CN2C(=O)N(Cc3cccc([N+](=O)[O-])c3)[C@H](Cc3ccccc3)[C@H](O)[C@@H](O)[C@H]2Cc2ccccc2)c1"
measured_metric = "pKi"
observed_measurement = 10.02

[[record]]
mol = "COc1cccc(CN2C(=O)N(Cc3cccc(C(=O)Nc4cccc(C)n4)c3)[C@H](Cc3ccccc3)[C@H](O)[C@@H](O)[C@H]2Cc2ccccc2)c1"
measured_metric = "pKi"
observed_measurement = 10.28

[[record]]
mol = "CC(C)(C)NC(=O)c1cccc(CN2C(=O)N(Cc3cccc(N)c3)[C@H](Cc3ccccc3)[C@H](O)[C@@H](O)[C@H]2Cc2ccccc2)c1"
measured_metric = "pKi"
observed_measurement = 9.39


Shifting focus to the compound that follows.
Problem: Can you share its pKi? I mean this compound: `COc1cc(CN2C(=O)N(Cc3cccc(C(=O)Nc4ccccn4)c3)[C@H](Cc3ccccc3)[C@H](O)[C@@H](O)[C@H]2Cc2ccccc2)cc(OC)c1`
Result: 9.07
